Molecular target: T1, Human ACVR2A (human, UniProt P27037 20-135, limits assumed); note: test concentration or dose not given here
T1 construct: also called activin receptor, type II A
T1 sequence (P27037 20-135 limits assumed): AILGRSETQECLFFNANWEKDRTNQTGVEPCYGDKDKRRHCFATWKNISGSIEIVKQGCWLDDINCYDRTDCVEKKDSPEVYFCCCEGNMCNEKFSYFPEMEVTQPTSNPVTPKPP
Assay: ELISA
Items are presented alongside their recorded optical density.
reportedProperty: optical density

binder	reportedProperty	result
365_E05 (antibody, V domains shown, VH/VL only) VH: EVQLLESGGGLVQPGGSLRLSCAASGFTFSSYGMHWVRQAPGKGLEWVAGINYNGGYTSYADSVKGRFTISRDNSKNTLYLQMNSLRAEDTAVYYCARSANWHDTALDYWGQGTLVTVSS VL: DIQMTQSPSSLSASVGDRVTITCRASQSIVSYVNWYQQKPGKAPKLLIYAATSLASGVPSRFSGSGSGTDFTLTISSLQPEDFATYYCQQSYDNPLTFGGGTKVEIK	optical density	2.18 OD
376_A05 (antibody, V domains shown, VH/VL only) VH: EVQLLESGGGLVQPGGSLRLSCAASGFTFSSYSMNWVRQAPGKGLEWVAGINYNSGYKGYADSVKGRFTISRDNSKNTLYLQMNSLRAEDTAVYYCARGATWHDTHLDYWGQGTLVTVSS VL: DIQMTQSPSSLSASVGDRVTITCRASQSILTYLNWYQQKPGKAPKLLIYAATSRASGVPSRFSGSGSGTDFTLTISSLQPEDFATYYCQQSYNTPLTFGGGTKVEIK	optical density	3.65 OD
365_B01 (antibody, V domains shown, VH/VL only) VH: EVQLLESGGGLVQPGGSLRLSCAASGFTFDSYGMHWVRQAPGKGLEWVASINYNSGYTSYADSVKGRFTISRDNSKNTLYLQMNSLRAEDTAVYYCARSANWHDTALDYWGQGTLVTVSS VL: DIQMTQSPSSLSASVGDRVTITCRASQSISSYVNWYQQKPGKAPKLVIYAATSRASGVPSRFSGSGSGTDFTLTISSLQPEDFATYYCQQSYESPLTFGGGTKVEIK	optical density	2.39 OD
375_B03 (antibody, V domains shown, VH/VL only) VH: EVQLLESGGGLVQPGGSLRLSCAASGFTFSSYSMNWVRQAPGKGLEWVAGINYNGGYTSYADSVKGRFTISRDNSKNTLYLQMNSLRAEDTAVYYCARGATWHDTHLDYWGQGTLVTVSS VL: DIQMTQSPSSLSASVGDRVTITCRASQSILTYLNWYQQKPGKAPKLLIYAATSRASGVPSRFSGSGSGTDFTLTISSLQPEDFATYYCQQSYDSPLTFGGGTKVEIK	optical density	3.68 OD
368_H11 (antibody, V domains shown, VH/VL only) VH: EVQLLESGGGLVQPGGSLRLSCAASGFTFDSYGMHWVRQAPGKGLEWVASINYNGGYTSYADSVKGRFTISRDNSKNTLYLQMNSLRAEDTAVYYCARGATWHDTHLDYWGQGTLVTVSS VL: DIQMTQSPSSLSASVGDRVTITCRASQSILSYLNWYQQKPGKAPKLLIYAATSRASGVPSRFSGSGSGTDFTLTISSLQPEDFATYYCQQSDDTPLTFGGGTKVEIK	optical density	1.95 OD
